Biological target: UniProtKB P00749
Assay: Inhibition of uPA (unknown origin)
measured_endpoint: IC50

Summary for this compound, `CN(C)C(=O)N1CCN(C(=O)[C@@H](Cc2cccc(C(=N)N)c2)NS(=O)(=O)c2ccc3ccccc3c2)CC1` : IC50 is > 10 µM

###

Recorded measurements of log10 IC50, one per entry
Target: Serine protease hepsin (Homo sapiens, UniProt P05981, D161E/R162K)
Assay: Inhibition of recombinant C-terminal His10-tagged human Hepsin (R45 to […] residues) D161E/ R162K double mutant expressed in mouse NS0 cells using Boc-QRR-AMC as substrate after 15 mins by manual fluorescence assay
The base-10 logarithm of IC50, taken with IC50 in nM, is what appears here.

Cc1ccc(S(=O)(=O)N[C@@H](C(=O)Nc2ccc(C(=N)N)cc2)c2ccccc2)cc1; 1.34
Cc1ccc(S(=O)(=O)N[C@H](C(=O)Nc2ccc(C(=N)N)cc2)C2CCCCC2)cc1; 2.34
N=C(N)c1ccc(NC(=O)[C@H](NS(=O)(=O)c2ccc(C(F)(F)F)cc2)C2CCCCC2)cc1; 2.93
N=C(N)c1cccc(C[C@H](NS(=O)(=O)c2ccc3ccccc3c2)C(=O)N2CCCC(C(=O)NCc3cccs3)C2)c1 (stereo partly drawn); 2.52
Cc1ccc(S(=O)(=O)NC(C(=O)Nc2ccc(C(=N)N)cc2)c2ccccc2)cc1 (stereo not drawn); 2.40

Summary for this compound, `N=C(N)c1ccc(NC(=O)[C@H](NS(=O)(=O)c2ccc(F)cc2)C2CCCCC2)cc1` : log10 IC50 is 2.28

Summary for this compound, Cc1ccc(S(=O)(=O)NC(CCc2ccccc2)C(=O)Nc2ccc(C(=N)N)cc2)cc1 (stereo not drawn) : log10 IC50 is 2.94

###

Target: Urokinase-type plasminogen activator (Homo sapiens, UniProt P00749)
Experiment: Inhibition of recombinant C-terminal His10-tagged human uPA (M1 to L431 residues) expressed in mouse NS0 cells using Z-GGR-AMC as substrate after 15 mins by automated fluorescence assay
Recorded measurements of pIC50, one per entry
# pIC50: negative log10 of molar concentration; output just the value

Completed entries (count: 3):
Cc1ccc(S(=O)(=O)N(C)C(CC(C)C)C(=O)Nc2ccc(C(=N)N)cc2)cc1 (configuration not stated); 4.62
N=C(N)c1ccc(NC(=O)[C@H](NS(=O)(=O)c2ccccc2)C2CCCCC2)cc1; 4.66
N=C(N)c1cccc(C[C@H](NS(=O)(=O)c2ccc3ccccc3c2)C(=O)N2CCCC(C(=O)NCc3cccs3)C2)c1 (some centres not stated); 5.61

Summary for this compound, `Cc1ccc(S(=O)(=O)N[C@@H](C(=O)Nc2ccc(C(=N)N)cc2)C2CCCCC2)cc1` : pIC50 is 5.36

Summary for this compound, Cc1ccc(S(=O)(=O)NC(CC2CCCC2)C(=O)Nc2ccc(C(=N)N)cc2)cc1 (configuration not stated) : pIC50 is 4.80

###

Biological target: Urokinase-type plasminogen activator (Homo sapiens)
Assay: Inhibition of recombinant C-terminal His10-tagged human uPA (M1 to L431 residues) expressed in mouse NS0 cells using Z-GGR-AMC as substrate after 15 mins by automated fluorescence assay
Recorded measurements of pIC50, one per entry
# pIC50: negative log10 of molar concentration; output just the value

Completed entries (count: 6):
N=C(N)c1ccc(NC(=O)[C@H](NS(=O)(=O)c2ccc(Cl)cc2)C2CCCCC2)cc1; 4.74
Cc1ccc(NC(=O)N[C@@H](C(=O)Nc2ccc(C(=N)N)cc2)C2CCCCC2)cc1; 4.37
COc1ccc(S(=O)(=O)N[C@@H](C(=O)Nc2ccc(C(=N)N)cc2)C2CCCCC2)cc1; 4.92
N=C(N)c1ccc(NC(=O)[C@H](NS(=O)(=O)c2ccc(C(F)(F)F)cc2)C2CCCCC2)cc1; 5.33
CCCCC(NS(=O)(=O)c1ccc(C)cc1)C(=O)Nc1cccc(C(=N)N)c1 (centres undefined); 4.72
CCCCC(NS(=O)(=O)c1ccc(C)cc1)C(=O)Nc1ccc(Br)cc1 (centres undefined); 4.24

Now look at this one.
Summary for this molecule, `N=C(N)c1ccc(/C=C2\CCCC/C(=C\c3ccc(C(=N)N)cc3)C2=O)cc1` : pIC50 is 6.32

Values compiled from ChEMBL document CHEMBL4118144.
